Would you kindly list inhibition for each of these compounds?
# Measured Target: Intercellular adhesion molecule 1 (Homo sapiens) (UniProt P05362)
# Sequence (P05362 whole entry): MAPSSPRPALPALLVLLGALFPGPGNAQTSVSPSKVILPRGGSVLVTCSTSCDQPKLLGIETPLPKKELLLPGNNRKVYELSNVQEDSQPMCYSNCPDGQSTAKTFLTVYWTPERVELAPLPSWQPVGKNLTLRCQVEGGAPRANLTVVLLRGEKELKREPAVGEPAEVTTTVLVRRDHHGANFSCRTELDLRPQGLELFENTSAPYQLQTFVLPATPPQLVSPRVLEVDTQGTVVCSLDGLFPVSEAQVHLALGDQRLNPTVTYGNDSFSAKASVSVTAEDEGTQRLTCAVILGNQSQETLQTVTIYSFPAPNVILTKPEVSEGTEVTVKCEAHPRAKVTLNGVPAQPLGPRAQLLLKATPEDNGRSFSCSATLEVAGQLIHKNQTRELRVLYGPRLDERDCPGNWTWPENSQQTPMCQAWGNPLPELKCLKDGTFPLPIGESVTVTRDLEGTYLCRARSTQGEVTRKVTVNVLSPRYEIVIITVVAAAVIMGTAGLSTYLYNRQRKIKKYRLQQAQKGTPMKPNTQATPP
# Procedure Details: Inhibition of sICAM1/LFA1 interaction-mediated human THP1 cell adhesion at 25 ug/mL after 1 hr by ELISA
# Test Context: THP-1
Please give the number followed by its unit.

Examples from the recorded data:
O=C(/C=C/CCCC/C=C/c1ccc2c(c1)OCO2)N1CCCCC1 | 93.8%
CC(C)CNC(=O)/C=C/C=C/CCCCCC/C=C/c1ccc2c(c1)OCO2 | 36.8%
O=C(/C=C/C=C/CC/C=C/c1ccc2c(c1)OCO2)N1CCCCC1 [DEHYDROPIPERNOLINE] | 73.4%
CC(C)CNC(=O)/C=C/CCCC/C=C/c1ccc2c(c1)OCO2 [RETROFRACTAMIDE C] | 36%
CC(C)CNC(=O)/C=C/CCCCCC/C=C/c1ccc2c(c1)OCO2 [PIPERCHABAMIDE D] | 42.6%

Give inhibition for each of the items listed below.
1. CCCCC/C=C/C=C/C(=O)NCC(C)C
2. O=C(/C=C/C=C\CC/C=C/c1ccc2c(c1)OCO2)N1CCCCC1
3. O=C(CCCCCC/C=C/c1ccc2c(c1)OCO2)N1CCCCC1

output:
80.6%
92.1%
67.6%

----------
# Measured Target: Intercellular adhesion molecule 1 (Homo sapiens) (UniProt P05362)
# Procedure Details: Inhibition of sICAM1/LFA1 interaction-mediated human THP1 cell adhesion at 3.13 ug/mL after 1 hr by ELISA
# Format: cell-based
# Test Context: THP-1
Measured Attribute: inhibition (%)
Numbers only, in %.

Examples from the recorded data:
CCCCC/C=C/C=C/C(=O)NCC(C)C [PELLITORIN] | 11.3
O=C(/C=C/CCCC/C=C/c1ccc2c(c1)OCO2)N1CCCCC1 [PIPERNONALINE] | 12.5

Give inhibition for each of the items listed below.
1. O=C(/C=C/C=C/CC/C=C/c1ccc2c(c1)OCO2)N1CCCCC1 [DEHYDROPIPERNOLINE]
2. O=C(CCCCCC/C=C/c1ccc2c(c1)OCO2)N1CCCCC1 [PIPERROLEIN B]
3. CC(C)CNC(=O)/C=C/CCCCCC/C=C/c1ccc2c(c1)OCO2 [PIPERCHABAMIDE D]

output:
30.1
16.2
15.6

----------
# Measured Target: Intercellular adhesion molecule 1 (Homo sapiens) (UniProt P05362)
# Procedure Details: Inhibition of sICAM1/LFA1 interaction-mediated human THP1 cell adhesion at 6.25 ug/mL after 1 hr by ELISA
# Type: cell-based
# Test Context: THP-1
Would you kindly list inhibition for each of these compounds?
Give bare numbers, in %.

Examples from the recorded data:
CCCCC/C=C/C=C/C(=O)NCC(C)C [PELLITORIN] | 16.5
O=C(/C=C/C=C\CC/C=C/c1ccc2c(c1)OCO2)N1CCCCC1 | 13.1

Now for a further compound.
input: Tell me the measured inhibition of CC(C)CNC(=O)/C=C/C=C/CCCCCC/C=C/c1ccc2c(c1)OCO2 [GUINEENSINE] , please.
output: 14.9

From: ChEMBL document CHEMBL1156593
